# test-details: Biodistribution experiments in normal mice after i.v. injection
# Assay type: in vivo
# experimental-setup: male, ddY, mouse, in vivo, iv, total radioactivity, mice, i.v., 180 min after injection, mean (SD); read-out: Biodistribution of radioactivity, Bone (Femur)
Where a SMILES comes first, the peptide text is derived from it. [ ]: non-standard residue; d: D form. The star is where a group is joined. DOTA = O=C(O)CN1CCN(CC(=O)O)CCN(CC(=O)*)CCN(CC(=O)O)CC1
reported-property: tissue uptake dose at 3 h (%ID)
Give just the numeric value; %ID need not be written.

## Task Which tissue uptake dose at 3 h value is on record for O=C(O)C[C@@H](NC(=O)[C@@H](CC(=O)O)NC(=O)[C@@H](CC(=O)O)NC(=O)[C@@H](CC(=O)O)NC(=O)[C@@H](CC(=O)O)NC(=O)[C@@H](CC(=O)O)NC(=O)[C@@H](CC(=O)O)NC(=O)[C@@H](CC(=O)O)NC(=O)[C@@H](CC(=O)O)NC(=O)[C@@H](CC(=O)O)NC(=O)[C@@H](CC(=O)O)NC(=O)CN1CCN(CC(=O)O)CCN(CC(=O)O)CCN(CC(=O)O)CC1)C(=O)O [^67Ga-DOTA-(D-Asp)11, metal not drawn] ({DOTA}-[dD][dD][dD][dD][dD][dD][dD][dD][dD][dD][dD]-OH) ?
## Result 15.4
